Here the recorded inhibition is given for each entry.
# tested_target: Tyrosine-protein kinase TXK (Homo sapiens) (UniProt P42681);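 further: value given is the mean percent inhibition of TXK kinase activity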
# Sequence (P42681 whole entry): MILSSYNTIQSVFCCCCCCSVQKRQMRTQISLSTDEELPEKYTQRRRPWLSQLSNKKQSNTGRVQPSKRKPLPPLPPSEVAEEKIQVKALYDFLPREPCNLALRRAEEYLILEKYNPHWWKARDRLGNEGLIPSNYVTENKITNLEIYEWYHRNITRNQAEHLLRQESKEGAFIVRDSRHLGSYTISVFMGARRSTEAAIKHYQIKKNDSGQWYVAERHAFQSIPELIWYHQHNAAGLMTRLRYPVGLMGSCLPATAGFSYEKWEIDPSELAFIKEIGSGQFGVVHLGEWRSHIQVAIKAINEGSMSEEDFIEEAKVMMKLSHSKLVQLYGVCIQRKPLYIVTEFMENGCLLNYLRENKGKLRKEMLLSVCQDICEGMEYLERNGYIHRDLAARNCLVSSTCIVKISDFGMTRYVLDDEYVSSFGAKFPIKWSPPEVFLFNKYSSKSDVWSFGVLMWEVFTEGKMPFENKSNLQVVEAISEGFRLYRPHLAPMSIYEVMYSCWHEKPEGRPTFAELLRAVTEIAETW
# experimental_context: at 1 µM
Write the number in % without appending the unit.

Study these solved cases before continuing.
CNC(=O)c1cncc(/C=C/c2ccccc2C)c1 | 24.5
CCS(=O)(=O)c1ccc(OC)c(Nc2ncc(-c3cccc(C(C)=O)c3)o2)c1 | 50.5
COc1cc2c(cc1Nc1nc(Nc3cccc(F)c3C(N)=O)c3cc[nH]c3n1)N(C(=O)CN1CCN(C(C)C)CC1)CC2 | 3.01
N#Cc1cccc(Nc2ncc(-c3ccccc3)o2)c1 | 3.17
COc1ccccc1-c1cc(/C=C2\C(=O)Nc3ncc(Br)cc32)cc(Br)c1O | 6.65

# inhibition lookup, item `CNC(=O)c1sc(-n2cnc3cc(OC)c(OC)cc32)cc1OCc1ccccc1C(F)(F)F` 11.5

---

This section presents molecules with their documented inhibition values.
# tested_target: Vascular endothelial growth factor receptor 1 (Homo sapiens) (UniProt P17948)
# Sequence (P17948 whole entry): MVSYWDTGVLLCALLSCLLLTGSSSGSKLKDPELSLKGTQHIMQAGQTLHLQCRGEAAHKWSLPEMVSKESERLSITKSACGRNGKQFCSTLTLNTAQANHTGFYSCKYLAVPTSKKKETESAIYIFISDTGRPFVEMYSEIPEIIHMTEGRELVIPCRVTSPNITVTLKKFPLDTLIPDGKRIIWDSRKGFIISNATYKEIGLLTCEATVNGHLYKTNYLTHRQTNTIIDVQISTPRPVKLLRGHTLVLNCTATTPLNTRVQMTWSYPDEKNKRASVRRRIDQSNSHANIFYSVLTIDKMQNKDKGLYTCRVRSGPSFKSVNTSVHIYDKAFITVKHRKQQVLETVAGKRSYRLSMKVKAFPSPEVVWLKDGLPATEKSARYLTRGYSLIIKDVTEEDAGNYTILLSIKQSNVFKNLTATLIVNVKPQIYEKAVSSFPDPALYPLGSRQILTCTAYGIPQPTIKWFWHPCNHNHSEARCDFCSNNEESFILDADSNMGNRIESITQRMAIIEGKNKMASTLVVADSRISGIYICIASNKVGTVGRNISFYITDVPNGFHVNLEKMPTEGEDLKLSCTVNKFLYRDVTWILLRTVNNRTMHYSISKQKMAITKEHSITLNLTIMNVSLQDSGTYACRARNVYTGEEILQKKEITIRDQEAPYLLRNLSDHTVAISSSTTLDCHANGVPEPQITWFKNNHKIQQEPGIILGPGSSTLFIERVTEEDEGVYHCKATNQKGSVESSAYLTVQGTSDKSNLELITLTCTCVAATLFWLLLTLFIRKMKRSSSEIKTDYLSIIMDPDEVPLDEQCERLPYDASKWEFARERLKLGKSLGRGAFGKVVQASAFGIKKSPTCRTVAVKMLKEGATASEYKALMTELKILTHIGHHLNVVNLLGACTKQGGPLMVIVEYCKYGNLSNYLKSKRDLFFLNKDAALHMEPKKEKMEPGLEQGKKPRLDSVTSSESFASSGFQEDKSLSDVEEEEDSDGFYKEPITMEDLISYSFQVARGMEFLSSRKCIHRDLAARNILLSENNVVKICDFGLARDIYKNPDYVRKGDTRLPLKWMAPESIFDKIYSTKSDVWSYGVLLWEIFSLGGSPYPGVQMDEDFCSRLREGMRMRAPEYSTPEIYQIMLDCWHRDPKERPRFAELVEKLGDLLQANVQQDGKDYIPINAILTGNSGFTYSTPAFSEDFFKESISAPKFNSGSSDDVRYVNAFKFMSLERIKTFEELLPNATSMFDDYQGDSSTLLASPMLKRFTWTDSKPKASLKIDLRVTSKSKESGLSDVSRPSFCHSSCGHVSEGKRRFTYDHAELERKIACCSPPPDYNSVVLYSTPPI
# experimental_context: at 1 µM
# Description: GSK_PKIS: FLT1 mean inhibition at 1 uM [Nanosyn]
The reply should be a number in %, with the unit left off.

Guide cases for inhibition, answers given:
Cn1c(-c2nonc2N)nc2cnccc21 | 1.68
COc1cc(N2CCN(C(C)C)CC2)ccc1Nc1nc(Nc2cccc(F)c2C(=O)O)c2cc[nH]c2n1 | 1.96
O=C1Nc2ccccc2/C1=C1\CCc2cc(O)ccc21 | 25.7
NS(=O)(=O)c1ccc(N/N=C2\C(=O)Nc3cccc(CCc4ccncc4)c32)cc1 | 12
Cc1nnc(-c2cccc(-c3ccc(C(=O)NCC4CC4)cc3)c2)o1 | 1.49

Look up inhibition with Vascular endothelial growth factor receptor 1 (Homo sapiens) (UniProt P17948) for this molecule: `CC(C)c1ccc(-c2cc(-c3c[nH]nc3-c3ccccn3)ccn2)cc1` 6.12

---

# tested_target: Ephrin type-A receptor 4 (Homo sapiens);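 further: mean inhibition of EPHA4 from the GSK PKIS screening set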
# experimental_context: at 0.1 µM
observable: inhibition (%)
Expressed in %, but write only the number.

Endpoint output: inhibition of `NS(=O)(=O)c1cccc(N/C=C2\C(=O)Nc3ccccc32)c1` . Value? 7.61

Name the reported inhibition value associated with the molecule `COC(=O)Nc1nc2ccc(Oc3ccc(NC(=O)Nc4cc(C(F)(F)F)ccc4F)cc3)cc2s1` 83.3

Please report the recorded inhibition for `Cc1cc(O)cc(C)c1/C=C/c1cncc(C(=O)OC(C)(C)C)c1` . 31.1

---

# tested_target: Calcium/calmodulin-dependent protein kinase type IV (Homo sapiens);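 further: each value is the mean of the measured CAMK4 inhibition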
# Sequence (whole entry): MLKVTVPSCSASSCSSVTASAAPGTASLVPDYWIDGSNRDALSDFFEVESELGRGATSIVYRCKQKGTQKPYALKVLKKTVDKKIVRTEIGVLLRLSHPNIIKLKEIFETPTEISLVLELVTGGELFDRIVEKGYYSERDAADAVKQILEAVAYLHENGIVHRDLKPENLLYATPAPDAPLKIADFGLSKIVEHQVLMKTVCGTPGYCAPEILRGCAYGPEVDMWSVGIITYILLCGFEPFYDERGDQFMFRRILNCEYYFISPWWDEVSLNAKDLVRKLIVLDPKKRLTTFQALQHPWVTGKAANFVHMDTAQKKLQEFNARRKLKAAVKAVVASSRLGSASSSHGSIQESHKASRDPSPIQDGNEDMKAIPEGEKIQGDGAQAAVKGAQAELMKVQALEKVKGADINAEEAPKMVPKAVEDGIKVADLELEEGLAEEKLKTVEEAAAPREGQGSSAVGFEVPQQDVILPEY
# experimental_context: at 1 µM
Reported values of inhibition for individual entries
Write it as a number; the unit % goes unstated.

// worked examples, inhibition included
CCCNc1cccc(-n2ncc3c(N/N=C/c4ccncc4)ncnc32)c1 | -3.1
COc1cc2c(cc1Nc1nc(Nc3cccc(F)c3C(N)=O)c3cc[nH]c3n1)N(C(=O)CN1CCN(C(C)C)CC1)CC2 | 7.37
COc1cccc(-n2ncc3c(N/N=C/c4ccc(C(=O)NCCN(C)C)cc4)ncnc32)c1 | 1.87
CS(=O)(=O)CCNCc1ccc(-c2ccc3ncnc(Nc4ccc(OCc5cccc(C(F)(F)F)c5)cc4)c3c2)o1 | -0.39

State the recorded inhibition for this entry: `N#Cc1ccc2c(-c3ccnc(NC4CC4)n3)c(-c3ccc(F)cc3)nn2c1` -2.53

Param item = `Cc1cc(O)cc(C)c1/C=C/c1cncc(C(=O)OC(C)(C)C)c1` ; retrieve measured inhibition. 1.35

Query: inhibition; subject: `CS(=O)(=O)CCNCc1ccoc1-c1ccc2ncnc(Nc3ccc(OCc4ccccc4)cc3)c2c1` -1.35

Any idea what inhibition was measured for `CN1CCC(n2cnc(-c3ccc(F)cc3)c2-c2ccnc(NCCO)n2)CC1` ? -5.99

Consider the compound `OCCCNc1nccc(-c2c(-c3ccc(F)cc3)nn3cc(C(F)(F)F)ccc23)n1` and give its measured inhibition. 1.44
